The origin of these recorded values is patent US20160213742A1.

System: Neutrophils purified from human peripheral blood
Test: Human Neutrophil Transwell Migration Assay
Format: cell-based
Details: conc 1 μg/mL; 37° C., 45 minutes; % of the maximum migration possible
Method: Neutrophils were purified from human peripheral blood utilizing PolymorphPrep. Red blood cells were lysed with a lysis buffer and the cells were washed, counted and resuspended in assay buffer. […] The plates were incubated at 37° C. for 45 minutes to allow for migration. After this time, migration was confirmed visually and then an aliquot (⅙^th of total cells) from each well was taken for ATP detection via luminescence with ATPlite (PerkinElmer) to quantify the number of migrated cells. […]
measure_name: % Neutrophil Migration (%)
Give bare numbers, in %.

Prompt line: # returns recorded % Neutrophil Migration (system: Neutrophils purified from human peripheral blood) for CC[C@H](C)C[C@H](C)CCCCCCCCC(=O)N[C@H]1C[C@@H](O)[C@@H](OCCN)NC(=O)[C@@H]2[C@@H](O)CCN2C(=O)[C@H]([C@H](O)CCNC(=O)[C@H](Cc2ccccc2)NC(=O)[C@H](CC(C)C)NC(=O)[C@H](CC[S+](C)[O-])NC=O)NC(=O)[C@H]([C@H](O)[C@@H](O)c2ccc(O)cc2)NC(=O)[C@@H]2C[C@@H](O)CN2C(=O)[C@H]([C@@H](C)O)NC1=O (stereo partly shown) [Compound 30]
Response line: 48.2

====

test system: A. fumigatus MYA-3626; experiment: MEC assay (Example 31); assay type: cell-based; details: RPMI pH 7.0, 35° C., 24-48 hr
What MEC was measured for each of the following?
Numbers only, in µg/mL.

# entry_smiles, units_of_measure, MEC
records = [
    ("CC[C@H](C)C[C@H](C)CCCCCCCCC(=O)N[C@H]1C[C@@H](O)[C@@H](NCCN)NC(=O)[C@@H]2[C@@H](O)CCN2C(=O)[C@H]([C@H](O)CCNC(=O)[C@H](CO)NC(=O)[C@H](CC(C)C)NC(=O)[C@H](CCSC)NC=O)NC(=O)[C@H]([C@H](O)[C@@H](O)c2ccc(O)cc2)NC(=O)[C@@H]2C[C@@H](O)CN2C(=O)[C@H]([C@@H](C)O)NC1=O", "µg/mL", 0.25),
]

Prompt line: // MEC lookup, key: CC[C@H](C)C[C@H](C)CCCCCCCCC(=O)N[C@H]1C[C@@H](O)[C@@H](NCCN)NC(=O)[C@@H]2[C@@H](O)CCN2C(=O)[C@H]([C@H](O)CCNC(=O)[C@H](CC(C)C)NC(=O)[C@H](CCSC)NC=O)NC(=O)[C@H]([C@H](O)[C@@H](O)c2ccc(O)cc2)NC(=O)[C@@H]2C[C@@H](O)CN2C(=O)[C@H]([C@@H](C)O)NC1=O
Response line: 0.25

====

tested on: Neutrophils purified from human peripheral blood; assay: Human Neutrophil Transwell Migration Assay; format: cell-based; conditions: conc 1 μg/mL; 37° C., 45 minutes; % of the maximum migration possible
measure_name: % Neutrophil Migration (%)
One number for each entry, in %.

# entry_smiles, experimental_target, % Neutrophil Migration, %
measured = [
    ("CC[C@H](C)C[C@H](C)CCCCCCCCC(=O)N[C@H]1C[C@@H](O)[C@@H](OCCN)NC(=O)[C@@H]2[C@@H](O)CCN2C(=O)[C@H]([C@H](O)CCNC(=O)[C@H](Cc2ccccc2)NC(=O)[C@H](CC(C)C)NC(=O)[C@H](CCSC)NC=O)NC(=O)[C@H]([C@H](O)[C@@H](O)c2ccc(O)cc2)NC(=O)[C@@H]2C[C@@H](O)CN2C(=O)[C@H]([C@@H](C)O)NC1=O", "Neutrophils purified from human peripheral blood", "−8.0"),
    ("CC[C@H](C)C[C@H](C)CCCCCCCCC(=O)N[C@H]1C[C@@H](O)[C@@H](NCCN)NC(=O)[C@@H]2[C@@H](O)CCN2C(=O)[C@H]([C@H](O)CCNC(=O)CCNC(=O)[C@H](Cc2ccccc2)NC(=O)[C@H](CC(C)C)NC(=O)[C@H](CCSC)NC=O)NC(=O)[C@H]([C@H](O)[C@@H](O)c2ccc(O)cc2)NC(=O)[C@@H]2C[C@@H](O)CN2C(=O)[C@H]([C@@H](C)O)NC1=O", "Neutrophils purified from human peripheral blood", "−9.7"),
    ("CC[C@H](C)C[C@H](C)CCCCCCCCC(=O)N[C@H]1C[C@@H](O)[C@@H](NCCN)NC(=O)[C@@H]2[C@@H](O)CCN2C(=O)[C@H]([C@H](O)CCNC(=O)[C@H](Cc2ccccc2)NC(=O)[C@H](CC(C)C)NC(=O)[C@H](CCSC)NC=O)NC(=O)[C@H]([C@H](O)[C@@H](O)c2ccc(O)cc2)NC(=O)[C@@H]2C[C@@H](O)CN2C(=O)[C@H]([C@@H](C)O)NC1=O", "Neutrophils purified from human peripheral blood", "−10.6"),
]

Note: attention shifts to another entry.
Prompt line: Look up % Neutrophil Migration: CC[C@H](C)C[C@H](C)CCCCCCCCC(=O)N[C@H]1C[C@@H](O)[C@@H](NCCNC(=O)[C@H](Cc2ccccc2)NC(=O)[C@H](CC(C)C)NC(=O)[C@H](CCSC)NC=O)NC(=O)[C@@H]2[C@@H](O)CCN2C(=O)[C@H]([C@H](O)CCN)NC(=O)[C@H]([C@H](O)[C@@H](O)c2ccc(O)cc2)NC(=O)[C@@H]2C[C@@H](O)CN2C(=O)[C@H]([C@@H](C)O)NC1=O
Response line: 30.6
